Biological target: Casein kinase I isoform epsilon (Homo sapiens, UniProt P49674)
Sequence (P49674 whole entry, looked up, canonical isoform): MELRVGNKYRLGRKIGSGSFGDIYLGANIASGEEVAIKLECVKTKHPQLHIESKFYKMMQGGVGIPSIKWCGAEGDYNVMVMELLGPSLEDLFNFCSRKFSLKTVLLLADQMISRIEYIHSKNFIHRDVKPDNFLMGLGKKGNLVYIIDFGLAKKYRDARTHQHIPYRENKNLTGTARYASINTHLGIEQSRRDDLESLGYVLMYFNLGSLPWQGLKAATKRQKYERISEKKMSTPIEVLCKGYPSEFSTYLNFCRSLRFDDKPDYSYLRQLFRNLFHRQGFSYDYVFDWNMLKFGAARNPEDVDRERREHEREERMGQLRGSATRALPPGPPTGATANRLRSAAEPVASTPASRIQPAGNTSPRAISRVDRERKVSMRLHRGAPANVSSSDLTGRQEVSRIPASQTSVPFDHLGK
Assay: Inhibition of human CK1epsilon transfected in HEK293 cells at 10 uM using NanoBRET NanoGlo substrate incubated for 2 hrs in presence of K8 tracer by NanoBRET assay relative to control
Format: cell-based
Recorded inhibition values for a group of compounds are listed next.
Report only the number, with the unit % understood.

See these solved cases before continuing.
compound	inhibition / %
CC(C)(C)c1cnc(CSc2cnc(NC(=O)C3CCNCC3)s2)o1 [BMS-387032]	25
N#Cc1ccn2c(-c3ccncc3)c(-c3ccc(F)cc3)nc2c1	25

Query block: For `N#Cc1ccc2c(-c3ccncc3)c(-c3ccc(F)cc3)nn2c1` , what is its reported inhibition?
Result block: 25

* * *

For reference, pIC50 measured on Casein kinase I isoform alpha (Homo sapiens, UniProt P48729):
Hey, just a heads up that pIC50 is the negative log base 10 of the concentration in molar.

smiles_record	result_number
CN1CCC(F)(Cn2cnc(-c3ccc(F)cn3)c2-c2ccnc3[nH]ccc23)CC1	7.85

Here is another molecule to look at.
Query block: For `CNC(=O)c1nn(C)c2c1C(C)(C)Cc1cnc(Nc3ccc(N4CCN(C)CC4)cc3)nc1-2` , what is its reported pIC50?
Result block: 6.60

* * *

For reference, pIC50 measured on Mitogen-activated protein kinase 14 (Homo sapiens, UniProt Q16539):
pIC50: −log10 of the molar value.

See these solved cases before continuing.
smiles_record	pIC50
Cc1nc(N)sc1-c1ccnc(Nc2ccc(N3CCOCC3)cc2)n1	< 4.70
CC(C)(C)n1nc(Cc2cccc3ccccc23)c2c(N)ncnc21	6.12

Query block: Give the reported pIC50 for `CC(C)[C@H](CO)Nc1nc(Nc2cc(N)cc(Cl)c2)c2ncn(C(C)C)c2n1` (system: Mitogen-activated protein kinase 14 (Homo sapiens, UniProt Q16539)).
Sequence (Q16539 whole entry): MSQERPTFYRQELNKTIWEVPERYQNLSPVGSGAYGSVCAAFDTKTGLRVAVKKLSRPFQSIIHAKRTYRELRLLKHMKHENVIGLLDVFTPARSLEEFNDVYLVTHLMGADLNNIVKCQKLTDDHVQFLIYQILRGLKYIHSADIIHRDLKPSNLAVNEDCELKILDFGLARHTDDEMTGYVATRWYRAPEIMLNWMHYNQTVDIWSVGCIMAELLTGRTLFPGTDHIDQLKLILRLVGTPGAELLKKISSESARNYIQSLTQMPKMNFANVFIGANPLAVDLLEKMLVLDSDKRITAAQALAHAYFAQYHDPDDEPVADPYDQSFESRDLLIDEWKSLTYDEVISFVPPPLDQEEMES
Result block: < 4.70

Query block: Give the reported pIC50 for `Nc1nc(Nc2ccc(S(N)(=O)=O)cc2)n(C(=S)Nc2c(F)cccc2F)n1` (system: Mitogen-activated protein kinase 14 (Homo sapiens, UniProt Q16539)).
Result block: < 4.70

Query block: Give the reported pIC50 for `c1ccc(-c2n[nH]cc2-c2ccnc3ccccc23)nc1` (system: Mitogen-activated protein kinase 14 (Homo sapiens, UniProt Q16539)).
Result block: 5.59

Query block: Give the reported pIC50 for `CNC(=O)c1nn(C)c2c1C(C)(C)Cc1cnc(Nc3ccc(N4CCN(C)CC4)cc3)nc1-2` (system: Mitogen-activated protein kinase 14 (Homo sapiens, UniProt Q16539)).
Result block: < 4.70

Query block: Give the reported pIC50 for `CC(=O)c1cnc2ccc(-c3cc(Cl)c(O)c(Cl)c3)nc2c1N[C@H]1CC[C@H](CN(C)C)CC1` (system: Mitogen-activated protein kinase 14 (Homo sapiens, UniProt Q16539)).
Result block: 7.40

Query block: Give the reported pIC50 for `C[C@@H](N)c1ccc(C(=O)Nc2ccnc3[nH]ccc23)cc1` (system: Mitogen-activated protein kinase 14 (Homo sapiens, UniProt Q16539)).
Result block: < 4.70

* * *

Molecular target: Casein kinase I isoform epsilon (Homo sapiens, UniProt P49674)
Test: Inhibition of human CK1epsilon transfected in HEK293 cells at 10 uM using NanoBRET NanoGlo substrate incubated for 2 hrs in presence of K8 tracer by NanoBRET assay relative to control
Assay type: cell-based
Recorded inhibition values for a group of compounds are listed next.
Report only the number, with the unit % understood.

See these solved cases before continuing.
compound	measure	result_number
CC(C)[C@H](CO)Nc1nc(Nc2cc(N)cc(Cl)c2)c2ncn(C(C)C)c2n1 [AMINOPURVALANOL]	inhibition	25
Nc1nc(Nc2ccc(S(N)(=O)=O)cc2)n(C(=S)Nc2c(F)cccc2F)n1	inhibition	25

Here is another compound to look at.
Query block: Give the reported inhibition for C[C@@H](N)c1ccc(C(=O)Nc2ccnc3[nH]ccc23)cc1 [Y-39983] (system: Casein kinase I isoform epsilon (Homo sapiens, UniProt P49674)).
Result block: 25

Data origin: ChEMBL document CHEMBL6109119
